B1: OR4K15 (parent)
chain: GUUAACGGUCAUAGGCCAUGGAAACUAGGAGCACCAUUUCGCUGCCAGUGAAGAAAUGAACAAAGAAAAUCUGGGCCAGGCAGGCAUCAAAAGAAAUAGUCUUGCGCUCAACCAGAAAGUCUGUAAUCAUUUUAAGGGUA

variants of: B1; assay: self-cleavage, relative activity (ratio to wild type); higher = more cleavage; in vitro, sequencing; the parent is a self-cleaving ribozyme
Reported self-cleavage values follow for various variants
MEASUREMENT_TYPE: self-cleavage

U49G U108C
0.01
A22U U72A
0.21
A30G A96G
1.25
C105U U139C
0.08
G119A
2.29
U72C A91G
0.05
A18G A67G
1.03
A64G U133C
1.5
A67G G74U
0.24
A22G A33G
0.98
U70C A82U
0.37
C81U U132C
0.5
A86G A111U
0.11
A52U U132C
1.06
A23U A54G
1.59
U57C C105U
0.15
A22U U43C
1.81
A68U
1.83
C76U A96C
0.1
G48A A59G
1.25
A24G A140G
1.4
U70A U122C
1.14
A91U U120C
1.64
G84A A92U
2.15
U49A A69U
1.92
A62G A89G
0.94
C112G U124C
0
U3A A67U
0.46
U39C U49A
1.41
A27G U139A
1.27
A60G A64G
1.24
C16U U43A
0.54
U19A A126G
1.38
G104U A117G
0.02
A36G A67U
1.85
A96G A129U
1.08
C77A A96G
1
A60C A96G
1.77
A23U A52G
1.2
A90C U120A
1.88
A89U A118G
1.61
U57C U122A
1.35
A126G A135C
0.84
U38C C113U
0.14
A22G G31A
1.19
C34U A90G
0.74
